# ASSAY TARGET: MAO-B (Homo sapiens, UniProt P27338)
# Construct: purchased Sigma-Aldrich
# Sequence (P27338 whole entry): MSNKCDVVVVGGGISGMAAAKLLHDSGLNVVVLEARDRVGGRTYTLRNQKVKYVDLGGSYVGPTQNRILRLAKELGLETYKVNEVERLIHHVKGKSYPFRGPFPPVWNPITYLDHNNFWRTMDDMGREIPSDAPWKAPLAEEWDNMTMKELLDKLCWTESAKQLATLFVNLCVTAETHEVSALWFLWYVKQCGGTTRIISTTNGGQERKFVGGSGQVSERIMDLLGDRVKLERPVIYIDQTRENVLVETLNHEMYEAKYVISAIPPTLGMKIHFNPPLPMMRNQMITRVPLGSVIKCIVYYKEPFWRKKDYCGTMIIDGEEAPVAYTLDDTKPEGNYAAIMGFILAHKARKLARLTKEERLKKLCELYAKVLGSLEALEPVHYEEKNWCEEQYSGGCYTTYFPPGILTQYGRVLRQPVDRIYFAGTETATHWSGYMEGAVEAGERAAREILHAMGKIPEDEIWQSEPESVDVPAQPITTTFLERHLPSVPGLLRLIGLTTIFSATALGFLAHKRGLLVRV
# TEST: MAO-B inhibition of prior 3-phenylcoumarins (literature data)
# Type: biochemical
# CONDITION DESCRIPTION: LiPE = pIC50 - QPlogPo/w, literature IC50
Param threshold (4) applies to LiPE; output 1 when value >= threshold, 0 when value < threshold.

Field: example entries. Status: answers known.
Cc1ccc(-c2cc3cc(O)ccc3oc2=O)cc1: 1
COc1cc(OC)cc(-c2cc3cc(C)cc(Br)c3oc2=O)c1: 0
COc1cc(-c2cc3cc(C)ccc3oc2=O)ccc1Br: 1

Tell me whether LiPE is at least 4 here: `COc1ccc(-c2cc3cc(C)ccc3oc2=O)cc1OC`
1

For this compound, is measured LiPE 4 or higher? `Cc1ccc(-c2cc3cc(OC4CCCC4)ccc3oc2=O)cc1`
0

Hi, just wondering whether `COc1ccc(-c2c(O)c3cc(C)ccc3oc2=O)cc1` shows LiPE of 4 or higher.
0

Is reported LiPE greater than or equal to 4 here: `COc1cc(OC)cc(-c2cc3cc(C)ccc3oc2=O)c1`
1

# bool: LiPE of `COc1ccc(-c2c(O)c3ccccc3oc2=O)cc1Cl` >= 4
0

Quick check, LiPE >= 4? `COc1ccc(-c2c(O)c3cc(C)ccc3oc2=O)cc1Cl`
0

API: above_or_equal(metric=LiPE, cutoff=4) for item `CC(=O)COc1cccc(-c2cc3cc(C)ccc3oc2=O)c1`
0

Test whether the compound `COc1cccc(-c2cc3cc(C)ccc3oc2=O)c1` records LiPE of 4 or higher.
1

Dear colleague, could you confirm whether `COc1ccc(-c2c(O)c3ccccc3oc2=O)cc1` has LiPE at or above 4?
0

Item `COc1ccc(-c2c(O)c3cc(Cl)ccc3oc2=O)cc1Cl` with LiPE of 4 or above?
0

Hi, just wondering whether `Cc1ccc2oc(=O)c(-c3ccccc3Br)cc2c1` shows LiPE of 4 or higher.
0

Check if LiPE >= 4 (inclusive). Item: `CC(=O)COc1ccc2oc(=O)c(-c3ccc(C)cc3)cc2c1`
0

Textbook exercise: given the entry `COc1ccc(-c2cc3cc(Br)cc(OC)c3oc2=O)cc1` , state whether its LiPE is greater than or equal to 4.
1

In plain terms: is recorded LiPE at least 4 for `COc1ccc2oc(=O)c(-c3ccc(C)cc3)cc2c1` ?
1

Test whether the compound `COc1ccc2oc(=O)c(-c3cccc(C)c3)cc2c1` records LiPE of 4 or higher.
1

Has `O=c1oc2c(O)cc(Br)cc2cc1-c1ccc(O)cc1` a recorded LiPE greater than or equal to 4?
0

Reference for the values: paper PMC5840146
